Tested on: W2
Assay: qHTS profiling for inhibitors of Plasmodium falciparum proliferation (AID 504749); further: nearly all actives have a fitted effect of over 60% in size; further: potency means the concentration at half of the fitted maximal effect
Conditions: P. falciparum in erythrocytes, SYBR Green DNA, 72 h; series mostly up to 28.7 µM
Inconclusive results are not listed. The source made the active and inactive calls. The call rests on the fitted dose curve; in most records, active means well fitted inhibition curve with a large enough effect; inconclusive means small, poorly fitted or top-dose-only effect; inactive means flat fitted curve, though single readings scatter.
readout: Potency

- compound: "COc1cc(NS(=O)(=O)c2ccc(N)cc2)nc(OC)n1"
  measured: "inactive"
- compound: "OC(Cn1cncn1)(Cn1cncn1)c1ccc(F)cc1F"
  measured: "inactive"
- compound: "Nc1[nH]c(=O)ncc1F"
  measured: "inactive"
- compound: "O=S(=O)(O)CCS"
  measured: "inactive"
- compound: "CCOc1cc(N)c(Cl)cc1C(=O)NCC1CN(Cc2ccc(F)cc2)CCO1 (configuration not stated)"
  measured: "7.57 µM (active)"
- compound: "CC1=CC(=O)c2ccccc2C1=O"
  measured: "6.01 µM (active)"
- compound: "Cc1cccc(N(C)C(=S)Oc2ccc3ccccc3c2)c1"
  measured: "inactive"
- compound: "CCCCOc1ccc(CC(=O)NO)cc1"
  measured: "0.572 µM (active)"
- compound: "CC(C)OC(=O)C(C(=O)OC(C)C)=C1SC=CS1"
  measured: "inactive"
- compound: "CN(Cc1cc(Br)cc(Br)c1N)C1CCCCC1"
  measured: "4.26 µM (active)"
- compound: "COc1cc([C@@H]2c3cc4c(cc3[C@H](O)[C@H]3COC(=O)[C@H]23)OCO4)cc(OC)c1OC"
  measured: "1.69 µM (active)"
- compound: "CC(C)(Sc1cc(C(C)(C)C)c(O)c(C(C)(C)C)c1)Sc1cc(C(C)(C)C)c(O)c(C(C)(C)C)c1"
  measured: "4.05 µM (active)"

---

System: 3D7
Experiment: qHTS profiling for inhibitors of Plasmodium falciparum proliferation (AID 504749); further: nearly all actives have a fitted effect of over 60% in size
Conditions: P. falciparum in erythrocytes, SYBR Green DNA, 72 h; series mostly up to 28.7 µM
Inconclusive results are not listed. The source made the active and inactive calls. The call rests on the fitted dose curve; in most records, active means well fitted inhibition curve with a large enough effect; inconclusive means small, poorly fitted or top-dose-only effect; inactive means flat fitted curve, though single readings scatter.

- molecule: "CNS(=O)(=O)Cc1ccc2[nH]cc(CCN(C)C)c2c1"
  outcome: "inactive"
- molecule: "Cc1nnc(NS(=O)(=O)c2ccc(N)cc2)s1"
  outcome: "inactive"
- molecule: "CC(C)OC(=O)C(C(=O)OC(C)C)=C1SC=CS1"
  outcome: "inactive"
- molecule: "CCCc1nc(C)c2c(=O)[nH]c(-c3cc(S(=O)(=O)N4CCN(CC)CC4)ccc3OCC)nn12"
  outcome: "inactive"
- molecule: "O=C(O)c1cc(=O)[nH]c(=O)[nH]1"
  outcome: "inactive"
- molecule: "CC[C@H](C)C(=O)O[C@H]1C[C@@H](C)C=C2C=C[C@H](C)[C@H](CC[C@@H]3C[C@@H](O)CC(=O)O3)[C@H]21"
  outcome: "inactive"
- molecule: "CC[C@H](NC(C)C)[C@H](O)c1ccc(O)c2[nH]c(=O)ccc12"
  outcome: "inactive"
- molecule: "Cc1cccc(N(C)C(=S)Oc2ccc3ccccc3c2)c1"
  outcome: "inactive"
- molecule: "C#CCN[C@@H]1CCc2ccccc21"
  outcome: "inactive"
- molecule: "CCOCC(O)COc1ccc(NC(=O)CC[S+](C)C)cc1 (stereo unspecified)"
  outcome: "inactive"
- molecule: "NC(N)=NC(N)=NCCc1ccccc1"
  outcome: "inactive"
